B1: PTPRD (parent)
chain: PVVSMDLDPQPITDEEEGLIWVVG

- Variants of: B1
- runDescription: protein stability index of a GFP-peptide fusion (GPS, HEK-293T) (PSI 1-6); higher = more stable;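 note: lentivirally expressed fusions sorted by FACS into six bins by GFP to DsRed ratio, PSI derived from sequencing read proportions per bin multiplied by bin number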
- particulars: c terminus: a fixed tail appended
Everything with protein stability index lower than 4 is False; everything else, including exactly 4, is True.

Say whether PVVSRDLDPQPITDEEEGLIWVVG [M5R] shows protein stability index of 4 or more.
True

And then PVVSMDLDPQPITDEELGLIWVVG [E17L] , what is it?
False

Cool, now PVVSMDLDPQPITDEEEHLIWVVG [G18H]
False

Another variant to look at: PVVFMDLDPQPITDEEEGLIWVVG [S4F]
False

Entry PVVSMDLDPQPITDEEENLIWVVG [G18N] please
True

Could you do the same for PVVSMDLDPQPITDEEEGLIWHVG [V22H] , please?
True

Another: PVVSMDLDPQPITDEEEGLHWVVG [I20H]
True

Now this one: PVVSMHLDPQPITDEEEGLIWVVG [D6H]
False

Thanks! And PVVSMDLDIQPITDEEEGLIWVVG [P9I] ?
False

Moving on to PNVSMDLDPQPITDEEEGLIWVVG [V2N]
False

Do the same for PVVSMDLDPQPITYEEEGLIWVVG [D14Y] please
False

Then PVVSMDLDPQPITDEEEGLIAVVG [W21A] ?
True

Similarly, PVVEMDLDPQPITDEEEGLIWVVG [S4E] ?
True

What about PVVSMDLDPQPITDEEEYLIWVVG [G18Y] ?
False

Same read-out for PYVSMDLDPQPITDEEEGLIWVVG [V2Y] ?
False

Now this one: PVPSMDLDPQPITDEEEGLIWVVG [V3P]
False

Entry PVVPMDLDPQPITDEEEGLIWVVG [S4P] please
True

And what about the variant PVVSMDLDPQPITDEEEGTIWVVG [L19T] ?
True

What would you report for PVVSMDLDPQPITDEEYGLIWVVG [E17Y] ?
False

Reference for the values: the supplement of paper PMC10567573
